Ki, 5-hydroxytryptamine receptor 2A (Homo sapiens): measured values
measure: Ki (µM)

Lab note: 5-hydroxytryptamine receptor 2A (Homo sapiens) assay, enter Ki for CCCN1CCc2cccc3c2C1Cc1cccc(OCc2cn(CCCCN4CCN(c5ccccc5OC)CC4)nn2)c1-3 (racemic) here
Sequence (P28223 whole entry): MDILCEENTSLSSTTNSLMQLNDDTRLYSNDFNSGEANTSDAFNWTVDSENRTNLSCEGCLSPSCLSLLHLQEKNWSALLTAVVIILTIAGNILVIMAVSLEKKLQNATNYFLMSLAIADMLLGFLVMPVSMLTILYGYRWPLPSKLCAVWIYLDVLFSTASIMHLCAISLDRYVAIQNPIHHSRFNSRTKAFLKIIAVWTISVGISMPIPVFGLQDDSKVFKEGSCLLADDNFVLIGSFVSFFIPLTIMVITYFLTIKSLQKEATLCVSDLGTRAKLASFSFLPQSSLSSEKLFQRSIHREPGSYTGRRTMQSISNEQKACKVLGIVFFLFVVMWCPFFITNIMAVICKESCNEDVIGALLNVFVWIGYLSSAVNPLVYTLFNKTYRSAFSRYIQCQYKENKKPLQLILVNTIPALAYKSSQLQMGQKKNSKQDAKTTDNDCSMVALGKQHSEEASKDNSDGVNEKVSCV
0.174

(a) CCCN1CCc2cccc3c2C1Cc1cccc(OCCCn2cc(CCN4CCN(c5ccccc5OC)CC4)nn2)c1-3 (racemic)
(b) CCCN1CCc2cccc3c2C1Cc1cccc(OCCCCN2CCN(c4ccccc4OC)CC2)c1-3 (racemic)
// pick min by Ki: a , b Selection: enter the item's label.
a
(a: 0.245 µM, b: 100 µM)

###

experimentalTarget: D(1A) dopamine receptor (Homo sapiens)
Sequence (P21728 whole entry): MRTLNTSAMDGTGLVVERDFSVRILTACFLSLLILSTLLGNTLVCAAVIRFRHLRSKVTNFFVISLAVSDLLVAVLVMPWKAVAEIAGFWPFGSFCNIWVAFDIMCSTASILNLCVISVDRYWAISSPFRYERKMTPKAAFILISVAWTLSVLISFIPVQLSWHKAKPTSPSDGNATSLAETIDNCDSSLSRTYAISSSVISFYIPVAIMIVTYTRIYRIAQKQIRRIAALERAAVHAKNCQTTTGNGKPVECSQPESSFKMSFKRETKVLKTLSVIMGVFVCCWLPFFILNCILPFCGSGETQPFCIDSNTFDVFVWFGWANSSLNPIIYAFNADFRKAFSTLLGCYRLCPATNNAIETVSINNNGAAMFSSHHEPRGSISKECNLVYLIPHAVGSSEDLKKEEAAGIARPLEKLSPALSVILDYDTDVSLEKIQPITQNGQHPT
assayProtocol: Displacement of [3H]SCH23390 from dopamine D1 receptor expressed in human HEK293 cells at 10 uM by liquid scintillation counter
Type: cell-based
measure: inhibition (%)

Give recorded inhibition. CCCN1CCc2cccc3c2C1Cc1cccc(OCCCNCCCO)c1-3 (racemic)
44

(P) CCCN1CCc2cccc3c2C1Cc1cccc(OCc2cn(CCCN4CCN(c5ccccc5OC)CC4)nn2)c1-3 (racemic)
(Q) CCCN1CCc2cccc3c2C1Cc1cccc(OCCCn2cc(CN4CCN(c5ccccc5OC)CC4)nn2)c1-3 (racemic)
Lower value of inhibition belongs to which: P or Q ? Answer by quoting the chosen item's label.
Q

###

experimentalTarget: D(3) dopamine receptor (Homo sapiens, UniProt P35462)
Sequence (P35462 whole entry): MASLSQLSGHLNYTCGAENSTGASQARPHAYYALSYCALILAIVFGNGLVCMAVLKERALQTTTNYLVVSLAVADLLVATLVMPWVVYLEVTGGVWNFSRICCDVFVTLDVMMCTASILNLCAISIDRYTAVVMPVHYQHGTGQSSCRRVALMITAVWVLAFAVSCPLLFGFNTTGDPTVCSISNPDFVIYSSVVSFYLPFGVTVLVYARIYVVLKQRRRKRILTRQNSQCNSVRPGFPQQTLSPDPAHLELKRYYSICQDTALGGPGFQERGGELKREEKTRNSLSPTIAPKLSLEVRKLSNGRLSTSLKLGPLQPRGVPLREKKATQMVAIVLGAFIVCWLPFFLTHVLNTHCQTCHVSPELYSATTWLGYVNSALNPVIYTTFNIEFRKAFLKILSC
measure: Ki (nM)

A selection of reference data follows.
Input `CCCN1CCc2cccc3c2[C@H]1Cc1cccc(OCCCn2cc(CCN4CCN(c5ccccc5OC)CC4)nn2)c1-3` , output reported Ki.
7.7

Assign Ki to the following record: CCCN1CCc2cccc3c2C1Cc1cccc(OCCCn2cc(CN4CCN(c5ccccc5OC)CC4)nn2)c1-3 (racemic)
281

(P) CCCN1CCc2cccc3c2C1Cc1cccc(OCCCNCCCO)c1-3 (racemic)
(Q) CCCN1CCc2cccc3c2[C@@H]1Cc1cccc(OCCCCN2CCN(c4ccccc4OC)CC2)c1-3
(R) CCCN1CCc2cccc3c2[C@H]1Cc1cccc(OCc2cn(CCCCN4CCN(c5ccccc5OC)CC4)nn2)c1-3
(S) CCCN1CCc2cccc3c2C1Cc1cccc(OCCCCN2CCN(c4ccccc4OC)CC2)c1-3 (racemic)
Please order the records by their reported Ki, lowest number first. Please list the labels in the order you were asked to rank them.
R, S, Q, P

###

experimentalTarget: D(2) dopamine receptor (Homo sapiens, UniProt P14416)
Sequence (P14416 whole entry): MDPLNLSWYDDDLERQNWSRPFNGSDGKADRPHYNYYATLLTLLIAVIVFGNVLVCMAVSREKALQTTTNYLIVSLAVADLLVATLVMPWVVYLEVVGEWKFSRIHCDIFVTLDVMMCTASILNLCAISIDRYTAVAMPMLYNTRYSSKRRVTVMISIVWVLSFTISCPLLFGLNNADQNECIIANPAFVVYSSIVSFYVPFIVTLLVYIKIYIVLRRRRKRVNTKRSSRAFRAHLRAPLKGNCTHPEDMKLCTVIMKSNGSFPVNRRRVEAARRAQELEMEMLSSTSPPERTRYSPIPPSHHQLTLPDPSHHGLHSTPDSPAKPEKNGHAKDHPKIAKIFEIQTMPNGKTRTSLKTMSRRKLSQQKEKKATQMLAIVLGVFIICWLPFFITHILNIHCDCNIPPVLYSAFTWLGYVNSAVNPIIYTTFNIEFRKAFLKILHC
assayProtocol: Displacement of [3H]spiperone from dopamine D2 receptor expressed in human HEK293 cells at 10 uM by liquid scintillation counter
Format: cell-based
measure: inhibition (%)

Using the record for C#CCOc1cccc2c1-c1cccc3c1C(C2)N(CCC)CC3 (racemic) , state its measured inhibition.
28

(a) CCCN1CCc2cccc3c2C1Cc1cccc(OCc2cn(CCCN4CCN(c5ncccn5)CC4)nn2)c1-3 (racemic)
(b) CCCN1CCc2cccc3c2C1Cc1cccc(OCc2cn(CCCN4CCN(c5ccccc5)CC4)nn2)c1-3 (racemic)
(c) CCCN1CCc2cccc3c2C1Cc1cccc(OCCCNCCCO)c1-3 (racemic)
Rank descending by inhibition. Please list each label once, in the requested order.
a, c, b
(a: 13%, c: 9%, b: 6%)

###

experimentalTarget: D(2) dopamine receptor (Homo sapiens, UniProt P14416)
assayProtocol: Displacement of [3H]spiperone from dopamine D2 receptor expressed in human HEK293 cells at 10 uM by liquid scintillation counter
Type: cell-based
measure: inhibition (%)

(P) CCCN1CCc2cccc3c2C1Cc1cccc(OCCCn2cc(CCCN4CCN(c5ccccc5OC)CC4)nn2)c1-3 (racemic)
(Q) CCCN1CCc2cccc3c2C1Cc1cccc(OCCCn2cc(CN4CCN(c5ccccc5OC)CC4)nn2)c1-3 (racemic)
# query: argmin of inhibition over P and Q Bench note: the answer is the label of the chosen record.
P

(1) CCCN1CCc2cccc3c2C1Cc1cccc(OCc2cn(CCCN4CCN(c5cccc(Cl)c5Cl)CC4)nn2)c1-3 (racemic)
(2) CCCN1CCc2cccc3c2C1Cc1cccc(OCc2cn(CCN4CCN(c5ccccc5OC)CC4)nn2)c1-3 (racemic)
In the pair 1 and 2 , the larger recorded inhibition belongs to which? Let me know the label of the one you choose.
1

###

experimentalTarget: D(1A) dopamine receptor (Homo sapiens)
assayProtocol: Displacement of [3H]SCH23390 from dopamine D1 receptor expressed in human HEK293 cells by liquid scintillation counter
measure: Ki (nM)

Some molecules with recorded Ki:
Determine its reported Ki: CCCN1CCc2cccc3c2C1Cc1cccc(OCCCn2cc(CCCCN4CCN(c5ccccc5OC)CC4)nn2)c1-3 (racemic)
1900

Using known records, supply Ki for CCCN1CCc2cccc3c2C1Cc1cccc(OCCCCN2CCN(c4ccccc4OC)CC2)c1-3 (racemic)
735

(A) CCCN1CCc2cccc3c2C1Cc1cccc(OCCCN(CCCN2CCN(c4ccccc4OC)CC2)S(C)(=O)=O)c1-3 (racemic)
(B) CCCN1CCc2cccc3c2C1Cc1cccc(OCc2cn(CCCCN4CCN(c5ccccc5OC)CC4)nn2)c1-3 (racemic)
Identify the entry with the smaller Ki: A or B . Your answer should be the label attached to the chosen record.
A
